- protocol text: TD Phase (Groups 1 and 3): plasma and ocular tissue concentrations and pharmacokinetics of Compound 18 and its metabolite Compound 4 after once daily ocular instillation of Compound 18 nanosuspension for 7 days
- Assay type: in vivo, New Zealand white rabbits
- condition info: male, New Zealand white, rabbit, topical or ocular, 0.8 mg/kg/day; plasma, Day 7, from mean concentrations; read-out: AUC0-8
parameter: AUC(0-t) (ng·h/mL)
Answer format: numeric, ng·h/mL implied, no suffix.

{"compound structure string": "CCCc1nn(C)c2c(=O)[nH]c(-c3cc(S(=O)(=O)N4CC(CCCO[N+](=O)[O-])C4)ccc3OCC)nc12", "unit annotation": "ng·h/mL", "readout number": 0.255}

Would you kindly look at the next entry?
Task: Returns the measured AUC(0-t) for the input compound. Input: CCCc1nn(C)c2c(=O)[nH]c(-c3cc(S(=O)(=O)N4CC(CCCO)C4)ccc3OCC)nc12
Output: 1.57

Data origin: patent US20220153746A1
